# PROTOCOL_TEXT: Fluorescent properties of duplexes carrying fluorophores at the 3′-end
# Type: physicochemical
# TEST_SETTINGS: oligonucleotide duplex carrying fluorophore at the 3′-end
Ends that are not written are not given here. Nct = N-((2S,3R)-1,3-dihydroxybutan-2-yl)-(4a,10a-dihydro-10,11-diazabenzo[b]fluoren-10-yl)acetamide monomer; Qut = N-(1,3-dihydroxybutan-2-yl)-10H-indolo[3,2-d]quinoline-11-carboxamide monomer; Pht = N-((2S,3R)-1,3-dihydroxybutan-2-yl)-2-phenylquinoline-4-carboxamide monomer; Act = N-(1,3-dihydroxybutan-2-yl)acridine-9-carboxamide monomer; code p = not defined here; Qgt = not defined here
Below, each entry is listed with its recorded Emission (nm).
State just the number; it will be interpreted in nm.

Solved entries (count: 5):
INSERT INTO assay_data (substance, measured_parameter, reported_result) VALUES
  ('TTCCGGAA-p-Qut: oligonucleotide 5′-TTCCGGAA-3′ carrying fluorophore Qut at the 3′-end (DNA TTCCGGAA-{code p-Qut}; not fully specified; cysteine pairing not given here; reading uncertain; also: DNA oligonucleotide with 3''-phosphate-linked Qut)', 'Emission (nm)', 492),
  ('TTCCGGAA-p-Act-p-Qut-p-Qut: oligonucleotide 5′-TTCCGGAA-3′ carrying trimer Act-p-Qut-p-Qut at the 3′-end (DNA TTCCGGAA-{code p-Act-code p-Qut-code p-Qut}; not fully specified; cysteine pairing not given here; reading uncertain; also: DNA oligonucleotide with 3''-Act-p-Qut-p-Qut trimer)', 'Emission (nm)', 436),
  ('TTCCGGAA-p-Nct: oligonucleotide 5′-TTCCGGAA-3′ carrying fluorophore Nct at the 3′-end (DNA TTCCGGAA-{code p-Nct}; not fully specified; cysteine pairing not given here; reading uncertain; also: DNA oligonucleotide with 3''-phosphate-linked Nct)', 'Emission (nm)', 442),
  ('TTCCGGAA-p-Act-p-Pht: oligonucleotide 5′-TTCCGGAA-3′ carrying dimer Act-p-Pht at the 3′-end (DNA TTCCGGAA-{code p-Act-code p-Pht}; not fully specified; cysteine pairing not given here; reading uncertain; also: DNA oligonucleotide with 3''-Act-p-Pht dimer)', 'Emission (nm)', 440),
  ('TTCCGGAA-p-Act-p-Qut: oligonucleotide 5′-TTCCGGAA-3′ carrying dimer Act-p-Qut at the 3′-end (DNA TTCCGGAA-{code p-Act-code p-Qut}; not fully specified; cysteine pairing not given here; reading uncertain; also: DNA oligonucleotide with 3''-Act-p-Qut dimer)', 'Emission (nm)', 485);

Value lookup for Emission (nm); key = TTCCGGAA-p-Qgt: oligonucleotide 5′-TTCCGGAA-3′ carrying fluorophore Qgt at the 3′-end (DNA TTCCGGAA-{code p-Qgt}; not fully specified; cysteine pairing not given here; reading uncertain; also: DNA oligonucleotide with 3'-phosphate-linked Qgt)
491

Value lookup for Emission (nm); key = TTCCGGAA-p-Qut-p-Qut: oligonucleotide 5′-TTCCGGAA-3′ carrying dimer Qut-p-Qut at the 3′-end (DNA TTCCGGAA-{code p-Qut-code p-Qut}; not fully specified; cysteine pairing not given here; reading uncertain; also: DNA oligonucleotide with 3'-Qut-p-Qut dimer)
490

###

Below, each entry is listed with its recorded Fluorescence emission (nm).
# PROTOCOL_TEXT: Fluorescence properties of the new compounds (excitation and emission wavelengths)
# Format: physicochemical
# TEST_SETTINGS: free compound
State just the number; it will be interpreted in nm.

INSERT INTO assay_data (compound, reported_result) VALUES
  ('CC(=O)NC1CC(C(=O)NC2CC(C(=O)NC3CC(C(N)=O)N(C(=O)CNC(=O)c4c5ccccc5nc5ccccc45)C3)N(C(=O)CNC(=O)c3c4ccccc4nc4ccccc34)C2)N(C(=O)CNC(=O)c2c3ccccc3nc3ccccc23)C1 (stereo not shown)', 440),
  ('CC(=O)NCCN(CC(=O)NCCN(CC(=O)NCCCCCCO)C(=O)CNC(=O)c1c2ccccc2nc2c1[nH]c1ccccc12)C(=O)CNC(=O)c1c2ccccc2nc2c1[nH]c1ccccc12', 495),
  ('CC(O)C(COP(=O)(O)OC(C)C(COP(=O)(O)OC(C)C(CO)NC(=O)c1c2ccccc2nc2ccccc12)NC(=O)c1c2ccccc2nc2c1[nH]c1ccccc12)NC(=O)c1c2ccccc2nc2c1[nH]c1ccccc12 (stereo not shown)', 440),
  ('CC(=O)N[C@@H](CCCNC(=O)CNC(=O)c1c2ccccc2nc2ccccc12)C(=O)N[C@@H](CCCNC(=O)CNC(=O)c1c2ccccc2nc2c1[nH]c1ccccc12)C(=O)N[C@@H](CCCNC(=O)CNC(=O)c1c2ccccc2nc2ccccc12)C(N)=O', 441),
  ('CC(O)C(COP(=O)(O)OC(C)C(CO)NC(=O)c1cc(-c2ccccc2)nc2ccccc12)NC(=O)c1cc(-c2ccccc2)nc2ccccc12 (stereo not shown)', 395),
  ('CC(O)C(COP(=O)(O)OC(C)C(CO)NC(=O)c1c2ccccc2nc2c1[nH]c1ccccc12)NC(=O)c1c2ccccc2nc2c1[nH]c1ccccc12 (stereo not shown)', 495),
  ('CC(=O)NCCN(CC(=O)NCCN(CC(=O)NCCCCCCO)C(=O)CNC(=O)c1c2ccccc2nc2ccccc12)C(=O)CNC(=O)c1c2ccccc2nc2ccccc12', 441),
  ('CC(=O)NC1CC(C(=O)NC2CC(C(=O)NC3CC(C(N)=O)N(C(=O)CNC(=O)c4c5ccccc5nc5c4[nH]c4ccccc45)C3)N(C(=O)CNC(=O)c3c4ccccc4nc4ccccc34)C2)N(C(=O)CNC(=O)c2c3ccccc3nc3c2[nH]c2ccccc23)C1 (stereo not shown)', 488);

Value lookup for Fluorescence emission (nm); key = CC(=O)NC1CC(C(=O)NC2CC(C(=O)NC3CC(C(=O)NC4CC(C(=O)NC5CC(C(=O)NC6CC(C(=O)NC7CC(C(N)=O)N(C(=O)CNC(=O)c8cc(-c9ccccc9)nc9ccccc89)C7)N(C(C)=O)C6)N(C(C)=O)C5)N(C(=O)CNC(=O)c5c6ccccc6nc6ccccc56)C4)N(C(C)=O)C3)N(C(C)=O)C2)N(C(=O)CNC(=O)c2c3ccccc3nc3c2[nH]c2ccccc23)C1 (stereo not shown)
432

Value lookup for Fluorescence emission (nm); key = "Cn1c2c3ccccc3nc-2c(NC[C@H](O)CO)c2ccccc21"
469

Value lookup for Fluorescence emission (nm); key = CC(=O)NC1CC(C(=O)NC2CC(C(=O)NC3CC(C(=O)NC4CC(C(=O)NC5CC(C(N)=O)N(C(=O)CNC(=O)c6c7ccccc7nc7c6[nH]c6ccccc67)C5)N(C(C)=O)C4)N(C(=O)CNC(=O)c4cc(-c5ccccc5)nc5ccccc45)C3)N(C(C)=O)C2)N(C(=O)CNC(=O)c2c3ccccc3nc3ccccc23)C1 (stereo not shown)
442

Value lookup for Fluorescence emission (nm); key = CC(O)C(COP(=O)(O)OC(C)C(COP(=O)(O)OC(C)C(CO)NC(=O)c1c2ccccc2nc2ccccc12)NC(=O)c1c2ccccc2nc2c1[nH]c1ccccc12)NC(=O)CNC(=O)c1c2ccccc2nc2ccccc12 (stereo not shown)
438

Value lookup for Fluorescence emission (nm); key = CC(O)C(COP(=O)(O)OC(C)C(CO)NC(=O)c1c2ccccc2nc2ccccc12)NC(=O)c1c2ccccc2nc2c1[nH]c1ccccc12 (stereo not shown)
438

Value lookup for Fluorescence emission (nm); key = CC(O)C(CO)NC(=O)CNC(=O)c1c2ccccc2nc2ccccc12 (stereo not shown)
440

Value lookup for Fluorescence emission (nm); key = CC(OP(=O)(O)OCC(O)CNc1c2nc3ccccc3c-2n(C)c2ccccc12)C(CO)NC(=O)c1c2ccccc2nc2c1[nH]c1ccccc12 (stereo not shown)
476

Value lookup for Fluorescence emission (nm); key = "C[C@@H](O)[C@H](CO)NC(=O)c1cc(-c2ccccc2)nc2ccccc12"
377

Value lookup for Fluorescence emission (nm); key = CC(O)C(COP(=O)(O)OC(C)C(COP(=O)(O)OC(C)C(CO)NC(=O)c1c2ccccc2nc2c1[nH]c1ccccc12)NC(=O)c1c2ccccc2nc2c1[nH]c1ccccc12)NC(=O)c1c2ccccc2nc2c1[nH]c1ccccc12 (stereo not shown)
499

Value lookup for Fluorescence emission (nm); key = CC(=O)N1CC(NC(=O)CNC(=O)c2c3ccccc3nc3ccccc23)C[C@H]1C(=O)N1CC(NC(=O)CNC(=O)c2c3ccccc3nc3c2[nH]c2ccccc23)C[C@H]1C(=O)N1CC(NC(=O)CNC(=O)c2c3ccccc3nc3c2[nH]c2ccccc23)C[C@H]1C(N)=O (stereo partly shown)
503

Value lookup for Fluorescence emission (nm); key = CC(=O)NC1CC(C(N)=O)N(C(=O)CNC(=O)c2c3ccccc3nc3c2[nH]c2ccccc23)C1 (stereo not shown)
502

###

# Tested on: duplex structure of DNA
# PROTOCOL_TEXT: Melting experiments (DNA-duplex stabilization)
# Format: physicochemical
# TEST_SETTINGS: versus unmodified oligonucleotide; 1 M NaCl, 10 mM sodium phosphate buffer of pH=7
Ends that are not written are not given here. Nct = N-((2S,3R)-1,3-dihydroxybutan-2-yl)-(4a,10a-dihydro-10,11-diazabenzo[b]fluoren-10-yl)acetamide monomer; Qut = N-(1,3-dihydroxybutan-2-yl)-10H-indolo[3,2-d]quinoline-11-carboxamide monomer; Act = N-(1,3-dihydroxybutan-2-yl)acridine-9-carboxamide monomer; code p = not defined here; Qgt = not defined here
MEASURED_PARAMETER: ΔTm (° C.)

INSERT INTO assay_data (substance, reported_result) VALUES
  ('TTCCGGAA-p-Qut: oligonucleotide 5′-TTCCGGAA-3′ carrying fluorophore Qut at the 3′-end (DNA TTCCGGAA-{code p-Qut}; not fully specified; cysteine pairing not given here; reading uncertain; also: DNA oligonucleotide with 3''-phosphate-linked Qut)', '+9 °C'),
  ('TTCCGGAA-p-Qgt: oligonucleotide 5′-TTCCGGAA-3′ carrying fluorophore Qgt at the 3′-end (DNA TTCCGGAA-{code p-Qgt}; not fully specified; cysteine pairing not given here; reading uncertain; also: DNA oligonucleotide with 3''-phosphate-linked Qgt)', '+15 °C'),
  ('TTCCGGAA-p-Act-p-Qut-p-Qut: oligonucleotide 5′-TTCCGGAA-3′ carrying trimer Act-p-Qut-p-Qut at the 3′-end (DNA TTCCGGAA-{code p-Act-code p-Qut-code p-Qut}; not fully specified; cysteine pairing not given here; reading uncertain; also: DNA oligonucleotide with 3''-Act-p-Qut-p-Qut trimer)', '+9 °C');

Value lookup for ΔTm (° C.); key = TTCCGGAA-p-Nct: oligonucleotide 5′-TTCCGGAA-3′ carrying fluorophore Nct at the 3′-end (DNA TTCCGGAA-{code p-Nct}; not fully specified; cysteine pairing not given here; reading uncertain; also: DNA oligonucleotide with 3'-phosphate-linked Nct)
+11 °C

Value lookup for ΔTm (° C.); key = TTCCGGAA-p-Act-p-Qut-p-Nct: oligonucleotide 5′-TTCCGGAA-3′ carrying trimer Act-p-Qut-p-Nct at the 3′-end (DNA TTCCGGAA-{code p-Act-code p-Qut-code p-Nct}; not fully specified; cysteine pairing not given here; reading uncertain; also: DNA oligonucleotide with 3'-Act-p-Qut-p-Nct trimer)
+25 °C

Value lookup for ΔTm (° C.); key = TTCCGGAA-p-Act-p-Qut: oligonucleotide 5′-TTCCGGAA-3′ carrying dimer Act-p-Qut at the 3′-end (DNA TTCCGGAA-{code p-Act-code p-Qut}; not fully specified; cysteine pairing not given here; reading uncertain; also: DNA oligonucleotide with 3'-Act-p-Qut dimer)
+9 °C
